# System: MS2 coat protein
# ASSAY NAME: apparent KD of MS2 coat protein; designed switch direction (-1 OFF switch, 1 ON switch): -1; higher = weaker reporter binding
# TEST SETTINGS: input ligand: FMN 200 uM
apparent KD of MS2 coat protein values, listed per item
Please reply with the bare figure in nM and do not write the unit itself.

Please review the entries below; each comes with its answer.
RESIDUE SEQUENCE: UUACGGAUAGAGGAUAUAUUAAGGAAGGUUUCGAUAGAAGGCUAGACAUGAGGAUCACCCAUGUAUAUUGGGAU [JR_Ex6_Sub073] (Eterna round: R97, puzzle: Exclusion 6)
UNIT DESCRIPTOR: nM
apparent KD of MS2 coat protein: 164
//
RESIDUE SEQUENCE: CCUAGUUGGUAAGGAUAUCCUACACUGUUCUGACCCGGGCAUGCUACAUGAGGAUCACCCAUGUGGGAGAAGGUGCGUCAACGC [Design 14] (Eterna round: R96, puzzle: Exclusion NG 2)
UNIT DESCRIPTOR: nM
apparent KD of MS2 coat protein: 36.8

Please look at the following sequence next.
The value of apparent KD of MS2 coat protein measured for the sequence CCGUGAGGUAAUAAUCAGUACAUGAGGAUCACCCAUGUCAAGAAGUUGCUCGUCGGUCGGAAAUACGGACGACCCAU [Eternabot (Original) Solution 50] (Eterna round: R97, puzzle: Sensor, turn-off variant 1) turned out to be 19.1
